# EXPERIMENTAL_DETAILS: Intrinsic clearance in dog liver microsomes measured per mg protein
# Format: ADME, Canis lupus familiaris, Microsome
# CONDITION_NOTES: read-out: CLH
OBSERVABLE: microsomal CLint

Query :: Which value of microsomal CLint has been reported for COc1ccc(-c2ncn(-c3cc(OC)c(OC)c(OC)c3)n2)cc1F in the records?
Result :: > 53 µL/min/mg
